The reported numbers originate from PubChem BioAssay AID1159580.

# protocol-text: chemical genetic growth profiling, strain panel (AID 1159580);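 also: tested at 20 µM; growth read once vehicle control cultures reached saturation at 30 °C; 1 = growth at the plate median or of vehicle wells; lower values mean less growth of the strain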
# experimental-context: S. cerevisiae deletion strains, growth OD, locus YJL168C, strain set2, active compounds read low
Out of some 5,500 compounds screened, about 2,000 (36%) were called active. About 18% were inconclusive and are not listed. The list shows a part of the results.
endpoint: normalized growth

INSERT INTO measurements (molecule, endpoint, observed_value) VALUES
  ('C1N2CN3CN1CN(C2)C3', 'normalized growth', 0.985),
  ('O=c1oc2ccccc2cc1O', 'normalized growth', 0.989),
  ('CC1[C@H](C)OC(=O)CC(O)CC(O)CC(O)CCC(O)C(O)C[C@]2(O)CC(O)C(C(=O)O)C(CC(OC3O[C@H](C)[C@@H](O)[C@H](N)[C@@H]3O)/C=C/C=C/C=C/C=C/CC/C=C/C=C/[C@H](C)[C@H]1O)O2 (stereo not given in full)', 'normalized growth', 0.199),
  ('Clc1ccc(COC(Cn2ccnc2)c2ccc(Cl)cc2Cl)cc1 (stereo not given)', 'normalized growth', 0.0595),
  ('NC(=O)NC1NC(=O)NC1=O (stereo not given)', 'normalized growth', 0.98),
  ('O=C(O)C(O)C(O)C(=O)O (stereo not given)', 'normalized growth', 0.996),
  ('O=C(O)C(O)C(O)C(O)C(O)C(=O)O (stereo not given)', 'normalized growth', 0.988),
  ('CN1CCC[C@@H]1CCO[C@](C)(c1ccccc1)c1ccc(Cl)cc1', 'normalized growth', 1),
  ('Cc1oncc1C(=O)Nc1ccc(C(F)(F)F)cc1', 'normalized growth', 0.993),
  ('C[C@]12CCC3c4ccc(OC(=O)CCC(=O)O)cc4CCC3C1CCC2=O (stereo not given in full)', 'normalized growth', 1),
  ('C[C@]12CCC3c4ccc(OC(=O)c5ccccc5)cc4CCC3C1CCC2=O (stereo not given in full)', 'normalized growth', 0.996),
  ('O=c1cccc2n1CC1CC2CN2CCCC[C@@H]12 (stereo not given in full)', 'normalized growth', 0.99),
  ('COC(=O)[C@@H]1OC(=O)C2OC23[C@@]1(C)CCC1[C@@]2(C)CCC(=O)C(C)(C)C2C[C@@H](OC(C)=O)[C@]13C (stereo not given in full)', 'normalized growth', 1.01),
  ('NC1(C(=O)O)CCC1', 'normalized growth', 0.978),
  ('CC1OC(O[C@H]2/C=C/C=C/C=C/C=C/C=C/C=C/C=C/[C@H](C)[C@@H](O)[C@@H](C)[C@H](C)OC(=O)CC(O)CC(O)CCC(O)C(O)CC(O)C[C@]3(O)C[C@H](O)C(C(=O)O)C(C2)O3)C(O)[C@H](N)C1O (stereo not given in full)', 'normalized growth', 1.01),
  ('COC(=O)/C(C)=C\CC12OC(C)(C)C3CC(C=C4C(=O)c5c(OC)c6c(c(CC=C(C)C)c5OC431)OC(C)(CCC=C(C)C)C=C6)C2=O (stereo not given)', 'normalized growth', 0.982),
  ('CC1CCC(NC(=O)N(CCCl)N=O)CC1 (stereo not given)', 'normalized growth', 1.01),
  ('CNc1ccc(C(=O)CC(O)CCC(C)C2OC(=O)CC(O)CC(=O)CC(O)CC(O)CC(O)CC(O)CC3(O)CC(O)C(C(=O)OC)C(CC(OC4OC(C)C(O)C(N)C4O)/C=C/C=C/C=C/C=C/C=C/C=C/C=C/C2C)O3)cc1 (stereo not given)', 'normalized growth', 0.119),
  ('CC(=O)O[C@@H]1CC2C(C)(C)[C@H](O)CC[C@]2(C)C2CC[C@@]3(C)[C@H](c4ccoc4)OC(=O)[C@H]4O[C@]43[C@@]21C (stereo not given in full)', 'normalized growth', 1.02),
  ('O=c1[nH]c(=O)n(C2C[C@H](O)[C@@H](CO)O2)cc1C(F)(F)F (stereo not given in full)', 'normalized growth', 0.987),
  ('NCCCNCCSP(=O)(O)O', 'normalized growth', 1),
  ('C[C@]12CCC3C(CC[C@H]4C[C@@H](O)CC[C@]34C)C1CC[C@@H]2O (stereo not given in full)', 'normalized growth', 1.03),
  ('COC(=O)[C@@H]1OC(=O)C2OC23[C@@]1(C)CCC1[C@]2(C)C(C[C@@H](O)[C@]13C)C(C)(C)[C@H](OC(C)=O)C[C@@H]2OC(C)=O (stereo not given in full)', 'normalized growth', 0.998),
  ('NC(C(=O)O)C(O)C(=O)O (stereo not given)', 'normalized growth', 1.01),
  ('OC[C@H]1O[C@@H](n2cnc3c(NCc4ccco4)ncnc32)[C@H](O)[C@@H]1O', 'normalized growth', 1.01),
  ('O=C(O)C1CCCNC1 (stereo not given)', 'normalized growth', 1.02),
  ('NC(N)=NCCN1CCCCCCC1', 'normalized growth', 1.03),
  ('CC(=O)O[C@H]1C[C@@H](OC(C)=O)C(C)(C)C2C[C@@H](O)[C@]3(C)C(CC[C@@]4(C)[C@H](c5ccoc5)OC(=O)[C@H]5O[C@]543)[C@]21C (stereo not given in full)', 'normalized growth', 0.995),
  ('COP(=S)(OC)Oc1ccc([N+](=O)[O-])cc1', 'normalized growth', 0.982),
  ('NC1(C(=O)O)CCCC1', 'normalized growth', 0.994),
  ('CC(=O)O[C@@H]1CC2C(C)(C)C(=O)C3OC3[C@]2(C)C2CC[C@@]3(C)[C@H](c4ccoc4)OC(=O)C4OC43[C@@]21C (stereo not given in full)', 'normalized growth', 0.996),
  ('Clc1ccc(CSC(Cn2ccnc2)c2ccc(Cl)cc2Cl)cc1 (stereo not given)', 'normalized growth', 0.0557),
  ('CC12CCC3C(=CCc4cc(O)ccc43)C1CCC2=O (stereo not given)', 'normalized growth', 0.994),
  ('C=NC(C(=O)NC1C(=O)N2C1SC(C)(C)C2C(=O)O)c1ccccc1 (stereo not given)', 'normalized growth', 1.01),
  ('c1ccc2c(CC3=NCCN3)cccc2c1', 'normalized growth', 1.02),
  ('NC1(C(=O)O)CC1', 'normalized growth', 1.02),
  ('CC(=O)O[C@@H]1CC2C(C)(C)[C@@H](O)CC[C@]2(C)C2CC[C@@]3(C)[C@H](c4ccoc4)OC(=O)[C@H]4O[C@]43[C@@]21C (stereo not given in full)', 'normalized growth', 1.01),
  ('CC(=O)C1CCC2C3CCC4C[C@H](O)CCC4(C)C3C[C@H](O)C12C (stereo not given in full)', 'normalized growth', 0.987),
  ('CC(C)(S)[C@@H](N)C(=O)O', 'normalized growth', 0.999),
  ('CC(=O)O[C@@H]1CC2C(C)(C)[C@H](O)CC[C@]2(C)C2CC[C@@]3(C)[C@H](c4ccoc4)OC(=O)C4OC43[C@@]21C (stereo not given in full)', 'normalized growth', 0.996);
